Test: Human HepG2 cell viability assay in 384 well format
Assay type: toxicity, cell-based
Set-up: dose 125 nL, time 70.5 hour; concentration not given beside the values
Conditions: HepG2 cells, read-out: Inhibition
quantity.measured: cytotoxicity at 70.5 h (%)
Numbers only, in %.

The examples below pair each entry with its known result.
Lookup result for Cn1cc(C2CC(=O)NC23CCN(CC2CC2)CC3)cn1 (centres undefined) ; measured cytotoxicity at 70.5 h: 9.8

Lookup result for CCC(CC)c1cc(CNC(=O)N2CCC(CO)CC2)on1 ; measured cytotoxicity at 70.5 h: -4.82

Lookup result for CCN(Cc1cc(Br)ccc1F)C(=O)C(C)NC(N)=O (centres undefined) ; measured cytotoxicity at 70.5 h: -19.1

Lookup result for CO[C@@H]1c2ccccc2C2(CCN(C(=O)CNS(C)(=O)=O)CC2)[C@H]1O ; measured cytotoxicity at 70.5 h: 23.4

Lookup result for Cc1n[nH]c(C)c1CC(=O)N1CCN(C)C2(CCNC(=O)CC2)C1 (centres undefined) ; measured cytotoxicity at 70.5 h: -4.03

Lookup result for CCS(=O)(=O)CCNC(=O)NCc1ccccc1-n1cccn1 ; measured cytotoxicity at 70.5 h: 2.95

Lookup result for CNC(=O)CN1CCOCC2(C1)CN(Cc1csnn1)CCO2 (centres undefined) ; measured cytotoxicity at 70.5 h: 12.8

Lookup result for N#CC1(c2ccccc2)CCN(C(=O)CN2C(=O)CCNC2=O)CC1 ; measured cytotoxicity at 70.5 h: -0.486

State recorded cytotoxicity at 70.5 h for all listed compounds.
1. COc1ncccc1CN1Cc2nnn(C)c2C(COCC2CC2)C1 (centres undefined)
2. CC(=O)Nc1ccc(Oc2cc(C)nc(C3CCCNC3)c2)cc1 (centres undefined)
3. Cc1cc(CN2C[C@@H](N3CCN(C)CC3)[C@H]3OCCC[C@H]32)oc1C
4. COCCNC(=O)NCc1cc(-c2ccncc2)n(C2CCCC2)n1

1.61
-3.03
-4.18
-13.6

State recorded cytotoxicity at 70.5 h for all listed compounds.
1. Cn1cccc1C(=O)N1CCCC2(CCCN2S(C)(=O)=O)C1 (centres undefined)
2. O=C(CC1CCCN1S(=O)(=O)N1CCCCC1)c1cccs1 (centres undefined)
3. O=S1(=O)COCCN1Cc1cccc(Cl)c1
4. CN(Cc1nccn1C)S(=O)(=O)Cc1cccc(C#N)c1
5. Cc1ccc(C2CN(CCCC#N)CCO2)c(C)c1 (centres undefined)
6. CC(C)[C@H](NC(=O)NC1CCS(=O)(=O)C1)C(=O)NCc1ccccc1Cl (some centres undefined)
7. Cc1noc([C@@H]2C[C@H]3OCC[C@H]3N(S(C)(=O)=O)C2)n1

1. -8.52
2. -3.32
3. -8.17
4. -12.6
5. -2.64
6. 0.909
7. -8.57

State recorded cytotoxicity at 70.5 h for all listed compounds.
1. O=c1cc2c(nn1CN1CCOCC1)CCC2
2. O=C(NCCc1cccs1)N1CCCC1CCCO (centres undefined)
3. O=C(NCc1cn2c(n1)CN(Cc1ccccn1)CC2)C1CCC1
4. c1ccc(COC[C@H]2CCC[C@@]23CNCCO3)nc1
5. CN(C)CCN1CCN(Cc2ccco2)Cc2cccnc21

1: -3.75; 2: -9.42; 3: -10; 4: 15.4; 5: -4.07

Where do these numbers come from? They come from ChEMBL document CHEMBL3507680.
